Values compiled from PubChem BioAssay (NCI).

- Test description: NCI Yeast Anticancer Drug Screen. Data for the cln2 rad14 strain (AID 165);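 further: 0% = growth equal to vehicle treated cultures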
- Experimental parameters: S. cerevisiae cln2 rad14 strain, at 5.0 µM (retest, dose inferred, filed as 0.5), hits give high values
About 79,000 compounds went through this panel and 15% of them were active in at least one assay; those are over-represented in the sample as a whole.
Parameter: growth inhibition (%)

1. CCN(Cc1ccccc1)CC(O)c1ccc(Cl)c(Cl)c1 (centres undefined)	2
2. NNc1ccccc1Cl	41
3. O=C(CCN1CC1)NCCc1ccccc1	-60
4. O=C1NC(=S)NC(=O)C1=C/C=C/c1ccccc1	44
5. Cc1cc([N+](=O)[O-])c(O)c([N+](=O)[O-])c1C	-42
6. [O]=[Sb]([OH])([OH])[c]1ccccc1	94
7. C[C@]12CCc3nonc3C1CC[C@@H]1C2CC[C@]2(C)C(=O)CCC12 (some centres undefined)	54
8. CC(=O)Nc1cccc([As+](C)(c2cccc(NC(C)=O)c2)c2cccc(NC(C)=O)c2)c1	18
9. O=c1c2ccccc2[se]n1-c1cccnc1	9
10. Ic1cccc2c1[se]c1ccccc12	5
11. FC(F)(F)c1nc2ccc(SSc3ccc4nc(C(F)(F)F)[nH]c4c3)cc2[nH]1	8
12. c1cc[c]([Sn]([c]2ccccc2)([c]2ccccc2)[CH]2CCCCC2)cc1	-2
13. CC(=O)OC1CCC2(C)C3CCC4(C)C(OC(=O)c5ccccc5)CCC4C3CC(Br)C2(O)C1 (centres undefined)	40
14. CCOC(=O)c1ccccc1N	2
15. CC(C)O.CC(C)O.OCCN(CCO)CCO.OCCN(CCO)CCO.[Ti+2]	34
16. Cc1cccc(OCC(O)CN2CC2)c1 (centres undefined)	4
17. c1ccc(P(CCP(c2ccccc2)c2ccccc2)CCP(c2ccccc2)c2ccccc2)cc1	84
18. N#C[SH2+].N#C[SH2+].N#C[SH2+].N#C[SH2+].[Cu+2].c1ccc(C[P+](c2ccccc2)(c2ccccc2)c2ccccc2)cc1	-8
19. COC(=O)C(Cl)(Br)CCl (centres undefined)	3
20. Cc1ccc(S(=O)(=O)OC2CCC3C4CC=C5CC(SC(=N)N)CCC5(C)C4CCC23C)cc1 (centres undefined)	4
21. O=C1C=C(Cl)C(=O)C=C1Cl	5
22. Cn1cnc(N)c1C(=N)[Se]	-60
23. CCOP(=O)(OCC)/C(C#N)=C/c1cccc(Cl)c1	14
24. N=C(N)c1ccccc1	6

====

- Test description: NCI Yeast Anticancer Drug Screen. Data for the rad50 strain (AID 155);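 further: 0% = growth of vehicle-only cultures of the same strain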
- Experimental parameters: S. cerevisiae rad50 strain growth inhibition; at 50.0 µM (retest, dose inferred, filed as 5.0); hits give high values
- Description: Growth inhibition of yeast strains with defined genetic alterations is measured as a screen for potential anti-cancer activity. Selected strains with alterations in DNA damage repair or cell cycle control were exposed to compounds and growth inhibition was measured relative to vehicle treated controls. The strain used in this assay is rad50
This is part of a sample that, as a whole, favours compounds with a hit. Of some 79,000 tested, about 15% had one in any assay.
Kind request: treat 30% as inclusive, so growth inhibition at 30% or higher is T, anything lower is F.

1. [I][Hg][CH2]C1COCC([CH2][Hg][I])O1 (stereo unspecified)	F
2. CCCCCCCCCCCC[As](=O)(O)O	T
3. CC1(Cl)CC(C)(/C=C/Cl)C(Cl)CC1Cl (stereo unspecified)	F
4. COC(=O)C(CCCN=C(N)N[N+](=O)[O-])NC(=O)c1ccc2c(c1O)C(=O)c1ccccc1C2=O (stereo unspecified)	F
5. Oc1ccc(Br)cc1C1N(Cc2ccc(N(CCCl)CCCl)cc2Cl)CCCN1Cc1ccc(N(CCCl)CCCl)cc1Cl	T
6. CNC(=O)N1CN(c2ccccc2)C2(CCN(CCCC(=O)c3ccc(F)cc3)CC2)C1=O	T
7. COc1cc2c(c(OC)c1OC)-c1ccc(O)c(=O)cc1C(NC(C)=O)CC2 (stereo unspecified)	F
8. CC(=O)OC1CCC2(C)C3=C(CCC2C1(C)C)C1(C)CCC(C(C)CCC2NC2(C)C)C1(C)CC3 (stereo unspecified)	T
9. OC(c1cc2c(c3ccccc13)CCCC2)C1CCCCN1 (stereo unspecified)	F
10. CCOC(=O)C(/N=N\c1nn[nH]n1)/N=N/c1ncn[nH]1 (stereo unspecified)	F
11. O=c1c[n+](-c2ccc[nH+]c2)[nH]o1.[Cl][Hg][Cl]	T
12. O=P(Nc1ccccc1)(Oc1ccccc1)N1CCN(c2ccccc2)CC1 (stereo unspecified)	T
13. Cc1ccc(P(=O)(c2ccc(C)cc2)c2ccc(C)cc2)cc1.Cc1ccc(P(=O)(c2ccc(C)cc2)c2ccc(C)cc2)cc1.[Cl][Sn]([Cl])([Cl])[Cl]	F
14. O=CNc1ccccc1.[Hg]	T
15. CC(=O)O.[Au].c1ccc([PH+](c2ccccc2)c2ccccc2)cc1	T
16. COC1=C(C)C(=O)C2=C(C1=O)C(CO)N1C(C#N)C3CC4C(C1C2N1CCOC41)N3C (stereo unspecified)	T
17. CCC[CH2][Sn]1([CH2]CCC)[O]C(=O)c2cccc(C)c2[O]1	T
18. O=[n+]1c2ccccc2n([O-])c2ccccc21.[Cl][Ni][Cl]	T
19. O=P1(Oc2ccccc2)C(c2ccccc2)C(c2ccccc2)=NN1c1ccccc1 (stereo unspecified)	F
20. C[N+]1(CCCl)CC[N+](C)(CCCl)CC1 (stereo unspecified)	T
21. CCC(C)(c1ccc(O)cc1)c1ccc(O)cc1	T

====

- Test description: NCI Yeast Anticancer Drug Screen. Data for the mec2-1 strain (AID 157)
- Experimental parameters: S. cerevisiae mec2-1 strain, at 50.0 µM
- Protocol: Growth inhibition of yeast strains with defined genetic alterations is measured as a screen for potential anti-cancer activity. Selected strains with alterations in DNA damage repair or cell cycle control were exposed to compounds and growth inhibition was measured relative to vehicle treated controls. The strain used in this assay is mec2-1
This is part of a sample that, as a whole, favours compounds with a hit. Of some 79,000 tested, about 15% had one in any assay. Active and inactive are the calls of the source. No stated cut-off is given here; in the data, active means growth inhibition above about 70%; inactive means the rest.
Labels: active, inactive

1. c1cc[c]([Sn]([c]2ccccc2)([c]2ccccc2)[c]2ccccc2)cc1	inactive
2. C[As](C)SCCC(CCCCC(=O)O)S[As](C)C (centres undefined)	inactive
3. CC(C)CC(NC(=O)C(N)C(C)C)C(=O)NC(CCCCN)C(=O)Nc1ccc(N(CCCl)CCCl)cc1 (centres undefined)	inactive
4. Oc1cccnc1[Se]	active
5. CC[C@H](C)c1occ2c(O)c(C(=O)O)c(=O)cc-2c1C	inactive
6. O=C(c1ccccc1)c1c(CC(O)c2ccccn2)n(C(=O)c2ccccc2)c2ccccc12 (centres undefined)	inactive
7. O=C(CI)NCc1ccccc1	active
8. [Br][Sn]([CH]1CCCCC1)([CH]1CCCCC1)[CH]1CCCCC1	active
9. ClCCN(CCCl)c1ccc(C2N(Cc3ccc(Cl)cc3)CCCN2Cc2ccc(Cl)cc2)cc1	active
10. CC1CCC2(OC1)OC1CC3C4CC=C5CC(OC6OC(CO)C(OC7OC(C)C(OC8OC(C)C(O)C(O)C8O)C(O)C7O)C(O)C6OC6OC(C)C(O)C(O)C6O)CCC5(C)C4CCC3(C)C1C2C (centres undefined)	active
11. c1ccc(P(CC[As](c2ccccc2)c2ccccc2)CC[As](c2ccccc2)c2ccccc2)cc1	active
12. CO/C(N)=C(\C#N)N=Cc1cccnc1	active
13. CCOC(=O)C1=C(C(=O)OCC)C2(c3ccccc3)N(O1)c1ccccc1C2(C)C (centres undefined)	inactive
14. Cc1ccccc1NC(=O)CBr	active
15. COc1ccccc1/C=C(/C)[N+](=O)[O-]	active
16. CC(C)NCC(O)c1ccccc1Cl (centres undefined)	inactive
17. O=P1(NCCCl)OC(c2ccccc2)=CCN1CCCl (centres undefined)	active
18. CCOC(=O)C1C2OC(=O)C(C(=O)C2CN(CCCl)CCCl)C1C1CC=C(CC2=CCC(C3C4C(=O)OC(C(CN(CCCl)CCCl)C4=O)C3C(=O)OCC)CC2)CC1 (centres undefined)	inactive
19. COc1cc2ccccc2c2cc([N+](=O)[O-])oc12	inactive
20. O=[N+]([O-])c1ccc([Se]CCBr)c([N+](=O)[O-])c1	inactive
21. CN(CCc1ccc(Br)cc1)CCN1CCCCC1	active
22. O=C1NC(=S)NC(=O)C1=Cc1ccc([N+](=O)[O-])o1	inactive
23. CC[CH2][Sn]([F])([F])[CH2]CC	active
24. C/C(=N\NC(N)=O)C(CN1CCOCC1)C(c1ccccc1)c1c(O)c2ccccc2oc1=O (centres undefined)	inactive
25. C1CC[N-]CC1.CC(=N\O)/C(C)=N/O.CC(=N\O)/C(C)=N/O.OC1[CH-]CCCC1.[Co+2]	inactive
26. [Cl][Hg][Cl].c1ccc(CSc2ccccc2)cc1	active
27. C[C@]12CCC(=O)C=C1CC[C@@H]1C2CC[C@@]2(C)C1CC[C@@H]2OC(=O)C12OC1CCC2=O (some centres undefined)	active
28. C[CH2][Sn]([CH2]C)([S]CCS(=O)(=O)O)[S]CCS(=O)(=O)O (tested in a mixture with another compound)	inactive
29. O=P(Oc1ccc(Cl)cc1)(Oc1ccc(Cl)cc1)N1CC1	inactive
30. CC(=O)[O-].O=C([CH-]C(=O)c1ccccc1)c1ccccc1.O=C([CH-]C(=O)c1ccccc1)c1ccccc1.[Sm+3]	active
31. COc1cccc2c1C(=O)c1c(O)c3c(c(O)c1C2=O)C[C@@](O)(C(C)=O)C[C@@H]3OC1CC(N)C(OC2CC(O)C(O)C(C)O2)C(C)O1 (some centres undefined)	inactive
32. O=S(=O)(O)O.[Pt].c1ccc([PH+](c2ccccc2)c2ccccc2)cc1.c1ccc([PH+](c2ccccc2)c2ccccc2)cc1.c1ccc([PH+](c2ccccc2)c2ccccc2)cc1	active
33. CCc1ccc([O-])c(C=NCCCN(C)CCCN=Cc2cc(C)ccc2[O-])c1.[Co+3].[N-]=[N+]=[N-]	inactive
34. C[C@]12Cc3conc3C(O)=C1CC[C@@H]1C2CC[C@@]2(C)C1CC[C@@H]2O (some centres undefined)	inactive
35. COc1cc(/C=C/c2ccc(OC)c(OC)c2)cc(OC)c1	inactive
36. O=S(=O)([O-])[O-].[Fe+2].c1ccc(/C(=N\Nc2ccccn2)c2ccccn2)cc1	active
37. COc1cccc2c1C(=O)c1c(O)c3c(c(O)c1C2=O)C[C@@](O)(/C(C)=N\O)C[C@@H]3OC1CC(N)C(O)C(C)O1 (some centres undefined)	inactive
38. O=C(Cl)c1ccccn1	active
39. Oc1c(-c2ccccc2)cc(-[n+]2c(-c3ccccc3)cc(-c3ccccc3)cc2-c2ccccc2)cc1-c1ccccc1	active
